tested on: CEM cells HIV-1 protection, formazan growth assay; experiment: NCI AIDS Antiviral Assay
pEC50: −log10 of the molar value.
MEASUREMENT NAME: pEC50

Would you mind listing pEC50 for each of the following compounds?
1. CO[C@@]12[C@@H]3N[C@@H]3CN1C1=C(C(=O)C(N3CCCC3)=C(C)C1=O)[C@@H]2COC(N)=O
2. Nc1ccc(S2(c3ccc(N)cc3)C=C(c3ccccc3)C(c3ccccc3)=C2)cc1
3. CCCCCCCOc1ccc(/C=C\c2cc[n+](CCCCCCCC[n+]3ccc(/C=C\c4ccc(OCCCCCCC)cc4)cc3)cc2)cc1
4. Cc1c(CCOC=O)c(=O)[nH]c2nncn12

Response given:
< 3.70
< 3.70
< 5.19
4.85

Would you mind listing pEC50 for each of the following compounds?
1. Cc1noc2c1C(=O)CCC2
2. Clc1ccc(CSc2ccc3nncc(SCc4ccc(Cl)c(Cl)c4)c3c2)cc1Cl
3. CC(=O)Nc1ccc(C(=O)NN2C(=O)C(Cl)C2c2cccc([N+](=O)[O-])c2)cc1 (centres undefined)

Response given:
< 2.78
< 4.38
< 3.70

Would you mind listing pEC50 for each of the following compounds?
1. C=CCC1(c2ccc(OC)cc2)C=CC(=O)CC1 (centres undefined)
2. CCCCCCCCCCCCCCCCCCOc1ccc2c(c1)-c1nc-2nc2[nH]c(nc3nc(nc4[nH]c(n1)c1cc(OCCCCCCCCCCCCCCCCCC)ccc41)-c1ccc(OCCCCCCCCCCCCCCCCCC)cc1-3)c1cc(OCCCCCCCCCCCCCCCCCC)ccc21

Response given:
1: < 3.55; 2: < 5.07
